Test system: KM12 colon
Experiment: NCI-60 one-dose screen, 48 h
Details: 10 µM unless noted
About 83,000 compounds went through this panel and 20% of them were active in at least one assay; those are over-represented in the sample as a whole. Active and inactive are the calls of the source. How the source made its calls: active means growth percent below 10; inactive means the rest.
Could you please pick one outcome from this set? active, inactive

// query What is the recorded call for this compound in the test? CCC(=C(c1ccc(OCCN2CCCCC2)cc1)c1ccc(OCCN2CCCCC2)cc1)c1ccc(Cl)cc1
// result active

***
// query What is the recorded call for this compound in the test? CC1CCN(S(=O)(=O)c2ccc(S(=O)(=O)N3CCCC(c4nc5c(nnn5Cc5cccc(Cl)c5)c(=O)[nH]4)C3)cc2)CC1 (stereo not given)
// result inactive

// query What is the recorded call for this compound in the test? Fc1cnccc1C1CC(c2ccc(N3CCNCC3)cc2)=NN1 (stereo not given)
// result inactive

// query What is the recorded call for this compound in the test? COc1ccc2c(c1)N(CCO)C1=C(C(=O)OC1)C2c1cccc(F)c1 (stereo not given)
// result inactive
